- Tested on: MS2 coat protein
- assay-overview: apparent KD of MS2 coat protein; designed switch direction (-1 OFF switch, 1 ON switch): -1; higher = weaker reporter binding
- stated-conditions: Eterna round: R95; input ligand: microRNA oligo, concentration not stated
Measured apparent KD of MS2 coat protein accompanies every entry in the list below.
Field note: include the unit after the figure.

GAAAAGUGAGGAUAUGGUAAAAGAAGAAGAAGAAGAAAACUCCAGAAGGCACAUGAGGAUCACCCAUGUGAAAG [salish99_ex4_r3_008] (puzzle: Exclusion 4)    0.0171 µM
GUAUAACUACACGGGCUCAACAUGAGGAUCACCCAUGUCUUAUACGCAAGCUUUUUGCUUGUCUUAUCUGUCCGUGA [Tibimaesan] (puzzle: Sensor v3, turn-off variant 1)    0.0119 µM
AUUGUAGUUGUGAGGAUAUCGUUGAUUUUUUGAAACGAGAAGGCACAUGAGGAUCACCCAUGUAAGUUGUAGGU [JR_BMOE4_Sub055] (puzzle: Brourd's mod of Exclusion 4)    0.0776 µM
GAUAGAGAGCAGGAUAUCUUGGAUAAGUAUAGUAGAGAAGGGCUCACAUGAGGAUCACCCAUGUGGUCCAAGAU [JL Dibiri mod 12] (puzzle: Exclusion 6)    0.0148 µM
ACUAGCUUUUUGCAUAGUAGGUUUGGUGCUUCGUAUGCUACAUGAGGAUCACCCAUGUUUUACUGAUGUCGUCGUUU [JR_SV3TOV2_Sub094] (puzzle: Sensor v3, turn-off variant 2)    0.0529 µM

Then this sequence:
Entry under review: GAUUAUGCGAGCUUUAGGGACAUGAGGAUCACCCAUGUUCGUCUUAUUGGUCUGAAUGCACUAACAUACCUAAAUCU [JMF 24] (puzzle: Sensor v3, turn-off variant 1) . Reported apparent KD of MS2 coat protein? 0.037 µM
